Every entry's value here was drawn from paper PMC3334291.

# assayed-target: MelBSt (melibiose permease of Salmonella typhimurium) (Salmonella enterica, UniProt P30878, L5M)
# condition-summary: read-out: WT; 20 mM NaCl, 10 μM D2G, 100 mM KPi pH 7.5; sugar site, competitive
quantity-kind: pIC50
Keep it numeric: pIC50 is minus log10 of the concentration in mol/L.

What value of pIC50 has been reported for the following compound? OC[C@H]1O[C@H](OC[C@H]2OC(O)[C@H](O)[C@@H](O)[C@@H]2O)[C@H](O)[C@@H](O)[C@H]1O (stereo partly shown)
2.42

* * *

# assayed-target: MelBSt (melibiose permease of Salmonella typhimurium) (Salmonella enterica, UniProt P30878, L5M/G117A)
# condition-summary: read-out: G117A; 20 mM NaCl, 10 μM D2G, 100 mM KPi pH 7.5; sugar site, competitive
quantity-kind: pIC50
Keep it numeric: pIC50 is minus log10 of the concentration in mol/L.

What value of pIC50 has been reported for the following molecule? OC[C@H]1O[C@H](OC[C@H]2OC(O)[C@H](O)[C@@H](O)[C@@H]2O)[C@H](O)[C@@H](O)[C@H]1O (stereo partly shown)
2.09
